B1: mRNA-splicing (parent)
chain: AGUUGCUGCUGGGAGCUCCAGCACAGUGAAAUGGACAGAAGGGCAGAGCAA

Variants of: B1
Assay: exon inclusion enrichment index; higher = more inclusion; WT1 exon 5 minigene, HEK293
Recorded exon inclusion enrichment index determines the group label, using low = under 0.08, intermediate = from 0.08 up to 0.8, high = 0.8 and over

For orientation, consider the following solved cases.
Exam item: Band for G5C C6G U7C U10C C22A A23C ?
Marked response: high

Exam item: # bin label for G5C C6G U7C U10C G11C G12A
Marked response: high

Exam item: # classify by exon inclusion enrichment index band: G5C C6A U7C G8A U10A A47U G48C
Marked response: low

Exam item: Classify this variant: G5C C6A U7C G8A U10A G41A G42U
Marked response: intermediate

Others:
Exam item: Hi, small favor: classify G5C C6A U7C G8A U10A C22U A23U by its exon inclusion enrichment index when you get a moment.
Marked response: low

Exam item: Dear colleague, I would appreciate it if you could identify the bin for G5C C6G U7C U10C A30U A31U and reply at your convenience.
Marked response: high

Exam item: Category of G5C C6U G8C C9U U10C G28U A29C :
Marked response: high

Exam item: Could you place G42U G43C in its proper category? Many thanks.
Marked response: intermediate

Exam item: Could you tell me which band G5A C6U U7A G8U C9A A30U belongs to?
Marked response: low

Exam item: # bin label for C6A U7C C9A U10C A14U G15U
Marked response: high

Exam item: Input G5A U7C G8A U10C A45G ; output its category
Marked response: high

Exam item: Class (by measured exon inclusion enrichment index) for G5C C6U G8C C9U U10C U17C C18A
Marked response: high

Exam item: Please indicate the class for G5U G8U C9U G28U A29G based on its exon inclusion enrichment index.
Marked response: intermediate

Exam item: Which exon inclusion enrichment index category applies to G5A C6G U7G C9A A35U C36U here?
Marked response: low

Exam item: Where would C6A U7A C9A U10A G42C G43A land among the classes by reported exon inclusion enrichment index?
Marked response: high

Exam item: Hi there! Could you help me figure out the category for G5C C6U G8C C9U U10C C44G A45G please?
Marked response: intermediate
